# target: T1, mfPRLR.mmh (soluble monomeric macaca fascicularis PRLR) (macaca fascicularis)
# T1 construct: soluble monomeric PRLR protein; also called macaca fascicularis (mf) PRLR.mmh; monkey PRLR
# T1 chain: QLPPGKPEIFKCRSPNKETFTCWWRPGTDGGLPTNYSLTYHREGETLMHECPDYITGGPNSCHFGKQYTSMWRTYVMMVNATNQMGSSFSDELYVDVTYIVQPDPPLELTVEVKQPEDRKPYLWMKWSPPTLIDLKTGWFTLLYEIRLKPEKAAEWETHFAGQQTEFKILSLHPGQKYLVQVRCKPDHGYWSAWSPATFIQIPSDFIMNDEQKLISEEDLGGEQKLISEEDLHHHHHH
# test-summary: SPR (Biacore), antibody capture, 37 C
quantity-measured: kon
Could you kindly put the unit after your number?

As a guide, the following entries are already answered.
{"binder": "H1H6966N (antibody, human IgG1, V domains shown, also called H2M6966N) VH: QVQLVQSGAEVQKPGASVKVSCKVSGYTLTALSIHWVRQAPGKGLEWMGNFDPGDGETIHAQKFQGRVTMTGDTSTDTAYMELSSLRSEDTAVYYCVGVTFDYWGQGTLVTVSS VL: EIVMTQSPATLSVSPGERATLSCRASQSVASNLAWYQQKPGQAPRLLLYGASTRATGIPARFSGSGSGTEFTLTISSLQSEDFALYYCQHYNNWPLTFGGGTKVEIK", "quantity-measured": "kon", "result": "1.22e+06 M⁻¹ s⁻¹"}
{"binder": "H1H6953N (antibody, human IgG1, V domains shown, also called H1M6953N) VH: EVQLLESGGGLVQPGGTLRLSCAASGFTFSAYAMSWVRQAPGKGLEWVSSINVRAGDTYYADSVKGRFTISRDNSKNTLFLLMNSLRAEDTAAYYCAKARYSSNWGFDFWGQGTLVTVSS VL: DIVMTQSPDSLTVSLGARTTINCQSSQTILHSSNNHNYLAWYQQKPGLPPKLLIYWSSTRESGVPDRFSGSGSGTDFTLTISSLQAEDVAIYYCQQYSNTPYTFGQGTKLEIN", "quantity-measured": "kon", "result": "947000 M⁻¹ s⁻¹"}
{"binder": "H1H6765P (antibody, human IgG1, V domains shown, human IgG1 Fc (H1H)) VH: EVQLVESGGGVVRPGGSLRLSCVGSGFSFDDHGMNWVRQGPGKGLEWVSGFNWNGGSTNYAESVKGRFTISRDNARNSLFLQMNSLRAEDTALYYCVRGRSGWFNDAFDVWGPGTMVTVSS VL: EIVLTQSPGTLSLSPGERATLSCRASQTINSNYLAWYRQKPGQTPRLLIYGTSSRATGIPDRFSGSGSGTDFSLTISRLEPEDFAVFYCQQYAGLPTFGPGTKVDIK", "quantity-measured": "kon", "result": "1.06e+06 M⁻¹ s⁻¹"}
{"binder": "H1H6803P (antibody, human IgG1, V domains shown, human IgG1 Fc (H1H)) VH: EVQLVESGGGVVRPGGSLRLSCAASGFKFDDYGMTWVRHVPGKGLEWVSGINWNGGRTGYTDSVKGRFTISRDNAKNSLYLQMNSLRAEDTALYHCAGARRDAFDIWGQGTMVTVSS VL: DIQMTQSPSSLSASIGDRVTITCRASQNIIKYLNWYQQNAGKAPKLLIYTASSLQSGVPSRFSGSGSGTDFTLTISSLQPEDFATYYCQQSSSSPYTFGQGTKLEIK", "quantity-measured": "kon", "result": "87300 M⁻¹ s⁻¹"}
{"binder": "H1H6804P (antibody, human IgG1, V domains shown, human IgG1 Fc (H1H)) VH: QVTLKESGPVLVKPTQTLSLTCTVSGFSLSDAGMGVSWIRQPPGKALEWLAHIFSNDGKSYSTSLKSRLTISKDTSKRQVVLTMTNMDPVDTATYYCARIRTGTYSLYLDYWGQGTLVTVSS VL: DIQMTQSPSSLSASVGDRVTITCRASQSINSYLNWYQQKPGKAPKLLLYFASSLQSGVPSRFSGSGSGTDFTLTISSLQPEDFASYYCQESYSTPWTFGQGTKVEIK", "quantity-measured": "kon", "result": "455000 M⁻¹ s⁻¹"}

Form: binder = H1H6785P (antibody, human IgG1, V domains shown, human IgG1 Fc (H1H)) VH: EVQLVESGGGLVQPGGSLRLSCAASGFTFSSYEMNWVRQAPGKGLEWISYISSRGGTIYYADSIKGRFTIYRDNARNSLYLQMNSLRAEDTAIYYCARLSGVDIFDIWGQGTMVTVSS VL: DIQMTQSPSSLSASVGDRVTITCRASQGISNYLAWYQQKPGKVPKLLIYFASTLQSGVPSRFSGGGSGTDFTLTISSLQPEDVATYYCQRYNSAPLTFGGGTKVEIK ; kon = 297000 M⁻¹ s⁻¹

Where do the numbers come from? From patent US20180185504A1.
